All values here come from the supplement of paper PMC6757056.

B1: library; a variant is named by its letters at N, in order (parent)
chain: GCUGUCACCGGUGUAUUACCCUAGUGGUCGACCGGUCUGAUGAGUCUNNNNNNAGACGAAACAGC

- Variants of: B1
- assaySummary: normalized RNA/DNA level without ligand (relative to sTRSVctl = 100) (log10 (% of sTRSVctl)); ligand: hypoxanthine (xanthine aptamer); higher = less ribozyme self-cleavage, higher mRNA level
- conditionDescription: HEK293T, reporter: mCherry (pCS4076), ligand present: no
Parameter: normalized RNA/DNA level without ligand (log10). Scope: all listed entries.

Q. Which normalized RNA/DNA level without ligand (log10) is listed for "UAUCGA" ?
A. 1.76
